- Test system: K562
- ASSAY: Cytotoxicity against human K562 cells assessed as cell growth inhibition after 48 hrs by Neubauer counting chamber analysis
- Format: cell-based
- SETTINGS: K562, 48 h
Catalogue of pIC50 readings, one per entry.
Give only the number. pIC50 is defined as minus log10 of concentration in molar units.

test_smiles=O=C(CCl)N1c2ccccc2Sc2ccccc21 measured=5.30

What is its pIC50 for K562? Entry: O=C(CCCl)N1c2ccccc2Oc2ccc(Cl)cc21
4.99

---

Reported pIC50 by item:
- Tested on: Leishmania major
- ASSAY: Antileishmanial activity against promastigote stage of Leishmania major assessed as inhibition of parasite proliferation after 48 hrs by Alamar Blue assay
- Format: functional, organism-based
Lab note: report pIC50 as minus log10 of the concentration in molar units, number only.

Answered examples (6):
compound="C[C@@H]1[C@H](O)[C@@H](C)/C=C/C=C/C=C/C=C/C=C/C=C/C=C/[C@H](O[C@@H]2O[C@H](C)[C@@H](O)[C@H](N)[C@@H]2O)C[C@@H]2O[C@](O)(C[C@@H](O)C[C@@H](O)[C@H](O)CC[C@@H](O)C[C@@H](O)CC(=O)O[C@H]1C)C[C@H](O)[C@H]2C(=O)O [AMPHOTERICIN B]" measured=6.48
compound=O=C(CCl)N1c2ccccc2C=Cc2ccccc21 measured=4.32
compound=O=C(CCl)N1c2ccccc2Oc2ccc(Cl)cc21 measured=5.12
compound=O=C(CCl)N(c1ccccc1)c1cccc(Cl)c1 measured=4.39
compound=O=C(CCl)Nc1cc(Cl)ccc1Oc1ccccc1 measured=4.37
compound=O=C(CCl)N1c2cc(Cl)ccc2Oc2ccc(Cl)cc21 measured=5.02

Tell me the measured pIC50 of O=C(CCl)N1c2ccccc2Sc2ccccc21 , please.
5.03

---

- Tested on: K562
- ASSAY: Cytotoxicity against human K562 cells assessed as cell growth inhibition after 48 hrs by Neubauer counting chamber analysis
- Assay type: cell-based
- SETTINGS: K562, 48 h
pIC50: −log10 of the molar value.
Use criterion met when the recorded pIC50 is no lower than 5; use criterion not met when it is lower.

test_smiles=O=C(CCl)N1c2cc(Cl)ccc2Oc2ccc(Cl)cc21 category_label="criterion met"
test_smiles=O=C(CCCl)N1c2ccccc2Oc2ccccc21 category_label="criterion not met"
test_smiles=O=C(CCl)N1c2ccccc2CCc2ccccc21 category_label="criterion met"
test_smiles=CC(=O)N1c2ccccc2Oc2ccc(Cl)cc21 category_label="criterion not met"
test_smiles=O=C(CCl)N1c2ccccc2Sc2ccc(Cl)cc21 category_label="criterion met"
test_smiles=O=C(C(Cl)Cl)N1c2ccccc2Oc2ccccc21 category_label="criterion not met"
test_smiles=O=C(CCl)N1c2ccccc2C=Cc2ccccc21 category_label="criterion met"
test_smiles=O=C(CCCCl)N1c2ccccc2Oc2ccc(Cl)cc21 category_label="criterion not met"
test_smiles=O=C(CBr)N1c2ccccc2Oc2ccc(Cl)cc21 category_label="criterion met"
test_smiles=O=C(CCl)N1c2ccccc2Oc2ccc(Cl)cc21 category_label="criterion met"

Tell me whether pIC50 is at least 5 here: O=C(CCl)N1c2ccccc2COc2ccc(Cl)cc21
criterion met

Check if pIC50 >= 5 (inclusive). Item: O=C(CCl)n1c2ccccc2c2ccccc21
criterion met

pIC50 >= 5 for N#CCC(=O)N1c2ccccc2Oc2ccccc21 ?
criterion not met
